Target under test: human TGR5 (Homo sapiens, UniProt Q8TDU6)
Construct: expressed in transfected cells; host or cells: HEK293
Sequence (Q8TDU6 whole entry): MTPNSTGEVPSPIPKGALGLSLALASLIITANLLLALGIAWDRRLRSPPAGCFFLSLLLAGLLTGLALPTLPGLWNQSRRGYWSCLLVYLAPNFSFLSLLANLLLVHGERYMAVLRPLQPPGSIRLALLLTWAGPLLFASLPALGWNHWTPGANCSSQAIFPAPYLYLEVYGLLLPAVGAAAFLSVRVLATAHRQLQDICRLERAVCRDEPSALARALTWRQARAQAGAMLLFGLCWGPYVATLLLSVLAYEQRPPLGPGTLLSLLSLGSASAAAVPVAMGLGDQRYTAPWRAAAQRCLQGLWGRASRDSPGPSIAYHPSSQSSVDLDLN
Test summary: Cell-based TGR5 assay (cAMP generation, HTRF)
Test parameters: HEK293 cells stably transfected with human TGR5; cAMP by HTRF; 30 minutes at 37° C.; read-out: pEC50 Human TGR5 (converted)
Observable: EC50

O=C(CCCCc1cc(Cl)c(COC2(c3cnccc3-c3ccccc3OC3CC3)CC2)cc1Cl)N[C@@H](CO)[C@@H](O)[C@H](O)[C@H](O)CO    < 100 nM

Now look at this one.
Would you mind telling me what EC50 value was observed for CN(C[C@H](O)[C@@H](O)[C@H](O)[C@H](O)CO)C(=O)CCCSc1ccc(Cl)c(CNC2(c3cnccc3-c3ccccc3OC3CC3)CC2)c1 ?
< 100 nM
